Values from the supplement of paper PMC10126150

Give measured switch fluorescence ratio for each item. Keep answers brief.
Test system: ATP;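 further: ATP exposure 15 min at 22 °C before imaging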
Assay: switch fluorescence ratio, 500 uM ATP over buffer (Cy3 cluster intensity, sum of 5 cycles each) (fold (ratio)); higher = stronger signal-on switching upon ATP binding; sequences stand for … in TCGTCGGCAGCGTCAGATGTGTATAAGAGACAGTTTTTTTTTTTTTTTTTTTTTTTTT…TC
Settings: aptamer strand: ATP DNA aptamer (quencher-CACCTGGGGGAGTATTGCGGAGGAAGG + anchor), 100 nM annealed; ATP concentration: 500 uM
Could you respond with only the numeric value?

Query :: Request: switch fluorescence ratio, test system ATP, entry CGGATATAAG;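 further: ATP exposure 15 min at 22 °C before imaging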
Result :: 1.01

Query :: Request: switch fluorescence ratio, test system ATP, entry AGGGGGCTGT;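 further: ATP exposure 15 min at 22 °C before imaging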
Result :: 0.994

Query :: Request: switch fluorescence ratio, test system ATP, entry CACTTATGTG;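 further: ATP exposure 15 min at 22 °C before imaging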
Result :: 0.99

Query :: Request: switch fluorescence ratio, test system ATP, entry GATGGTTTGA;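 further: ATP exposure 15 min at 22 °C before imaging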
Result :: 1.02

Query :: Request: switch fluorescence ratio, test system ATP, entry GTATGCCTTC;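 further: ATP exposure 15 min at 22 °C before imaging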
Result :: 1

Query :: Request: switch fluorescence ratio, test system ATP, entry CTTTCTTG;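 further: ATP exposure 15 min at 22 °C before imaging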
Result :: 1.01

Query :: Request: switch fluorescence ratio, test system ATP, entry TTTTGGATGT;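 further: ATP exposure 15 min at 22 °C before imaging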
Result :: 0.984

Query :: Request: switch fluorescence ratio, test system ATP, entry AATTTTCGGA;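 further: ATP exposure 15 min at 22 °C before imaging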
Result :: 0.991

Query :: Request: switch fluorescence ratio, test system ATP, entry TCATAAGTTG;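 further: ATP exposure 15 min at 22 °C before imaging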
Result :: 0.996

Query :: Request: switch fluorescence ratio, test system ATP, entry GGTCTGTTTC;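 further: ATP exposure 15 min at 22 °C before imaging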
Result :: 1.01

Query :: Request: switch fluorescence ratio, test system ATP, entry TAGTGGCTGG;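 further: ATP exposure 15 min at 22 °C before imaging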
Result :: 1

Query :: Request: switch fluorescence ratio, test system ATP, entry CGATAACATG;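 further: ATP exposure 15 min at 22 °C before imaging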
Result :: 0.998

Query :: Request: switch fluorescence ratio, test system ATP, entry ATGTTAGGGG;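 further: ATP exposure 15 min at 22 °C before imaging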
Result :: 0.981

Query :: Request: switch fluorescence ratio, test system ATP, entry TACCAAAGGT;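 further: ATP exposure 15 min at 22 °C before imaging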
Result :: 1.02

Query :: Request: switch fluorescence ratio, test system ATP, entry ACTGTGCTTT;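 further: ATP exposure 15 min at 22 °C before imaging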
Result :: 1.02

Query :: Request: switch fluorescence ratio, test system ATP, entry TACTGTGTCT;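 further: ATP exposure 15 min at 22 °C before imaging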
Result :: 0.981

Query :: Request: switch fluorescence ratio, test system ATP, entry TTGGAAAATA;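 further: ATP exposure 15 min at 22 °C before imaging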
Result :: 1.01

Query :: Request: switch fluorescence ratio, test system ATP, entry GGTAAGATAG;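 further: ATP exposure 15 min at 22 °C before imaging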
Result :: 1.01

Query :: Request: switch fluorescence ratio, test system ATP, entry CATATATCAT;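 further: ATP exposure 15 min at 22 °C before imaging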
Result :: 1.01

Query :: Request: switch fluorescence ratio, test system ATP, entry AACGGCTCTC;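 further: ATP exposure 15 min at 22 °C before imaging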
Result :: 0.988

====

Test system: ATP;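 further: ATP exposure 15 min at 22 °C before imaging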
Assay: switch fluorescence ratio, 500 uM ATP over buffer (Cy3 cluster intensity, sum of 5 cycles each) (fold (ratio)); higher = stronger signal-on switching upon ATP binding; sequences stand for … in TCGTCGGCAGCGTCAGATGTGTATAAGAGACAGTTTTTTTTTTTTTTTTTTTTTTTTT…TC
Details: aptamer strand: ATP DNA aptamer (quencher-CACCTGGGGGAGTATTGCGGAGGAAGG + anchor), 100 nM annealed; ATP concentration: 500 uM
property measured: switch fluorescence ratio
Could you respond with only the numeric value?

Query :: Which switch fluorescence ratio is listed for AGGGTAGGGG ?
Result :: 0.994

Query :: Which switch fluorescence ratio is listed for CGTATCTCTA ?
Result :: 0.989

Query :: Which switch fluorescence ratio is listed for TATGATTTGC ?
Result :: 1

Query :: Which switch fluorescence ratio is listed for ATATTGTCCA ?
Result :: 1.02

Query :: Which switch fluorescence ratio is listed for TGCCGGTGGT ?
Result :: 1.01

Query :: Which switch fluorescence ratio is listed for ATGTTAGGGT ?
Result :: 0.988

Query :: Which switch fluorescence ratio is listed for TTAGTAAGGT ?
Result :: 1.01

Query :: Which switch fluorescence ratio is listed for CAGGTCTTGG ?
Result :: 1.01

Query :: Which switch fluorescence ratio is listed for AATCGAATAT ?
Result :: 1

Query :: Which switch fluorescence ratio is listed for ATGAGAGCTT ?
Result :: 0.982

Query :: Which switch fluorescence ratio is listed for ATTGAGTAGC ?
Result :: 1.01

Query :: Which switch fluorescence ratio is listed for CAGCGCCGGG ?
Result :: 0.994

Query :: Which switch fluorescence ratio is listed for CTTGTAAAGG ?
Result :: 0.983

Query :: Which switch fluorescence ratio is listed for CAAATGGGTT ?
Result :: 1.01

Query :: Which switch fluorescence ratio is listed for TGGGTGAGTT ?
Result :: 1.02

Query :: Which switch fluorescence ratio is listed for GGCCTGGGAG ?
Result :: 0.992

Query :: Which switch fluorescence ratio is listed for CAATATGAAT ?
Result :: 1.02

Query :: Which switch fluorescence ratio is listed for AAGACGATGT ?
Result :: 0.995

Query :: Which switch fluorescence ratio is listed for AAATTGAGGA ?
Result :: 1.02

Query :: Which switch fluorescence ratio is listed for ATCGGGAGAT ?
Result :: 0.983

Query :: Which switch fluorescence ratio is listed for TTATTTTATG ?
Result :: 0.994

Query :: Which switch fluorescence ratio is listed for TGGGGGAGGG ?
Result :: 1

Query :: Which switch fluorescence ratio is listed for TAACCCGGTT ?
Result :: 0.999

Query :: Which switch fluorescence ratio is listed for TTTTTACGAG ?
Result :: 0.988

Query :: Which switch fluorescence ratio is listed for TAATATTAAC ?
Result :: 1.02

Query :: Which switch fluorescence ratio is listed for TTTCCTGAGG ?
Result :: 0.991

Query :: Which switch fluorescence ratio is listed for AATTTGATGT ?
Result :: 1

Query :: Which switch fluorescence ratio is listed for GACAGGGAAC ?
Result :: 1.01

Query :: Which switch fluorescence ratio is listed for TGTATGTGAG ?
Result :: 0.98

Query :: Which switch fluorescence ratio is listed for AGGCTAGCGG ?
Result :: 1.01

Query :: Which switch fluorescence ratio is listed for TTAGCGGGAT ?
Result :: 1.01

Query :: Which switch fluorescence ratio is listed for TAATTTGCGT ?
Result :: 1

Query :: Which switch fluorescence ratio is listed for ATGAGATTGC ?
Result :: 0.99

Query :: Which switch fluorescence ratio is listed for GTGGTACGGA ?
Result :: 1

Query :: Which switch fluorescence ratio is listed for TCTGGGGCCG ?
Result :: 1.02

Query :: Which switch fluorescence ratio is listed for TTACATTTTA ?
Result :: 1.02

Query :: Which switch fluorescence ratio is listed for GAGTGACTCG ?
Result :: 1.01

Query :: Which switch fluorescence ratio is listed for CATAGGTCTA ?
Result :: 0.996

Query :: Which switch fluorescence ratio is listed for CAAGGAAACG ?
Result :: 1

Query :: Which switch fluorescence ratio is listed for ATTAAGTCGC ?
Result :: 1.01

Query :: Which switch fluorescence ratio is listed for GACCAGTAAG ?
Result :: 0.982

Query :: Which switch fluorescence ratio is listed for TCTTGCCGCT ?
Result :: 1.01

Query :: Which switch fluorescence ratio is listed for ACACGGGGCG ?
Result :: 0.984

Query :: Which switch fluorescence ratio is listed for ATCGAGAGGT ?
Result :: 0.973

Query :: Which switch fluorescence ratio is listed for ATAATGTTTT ?
Result :: 1

Query :: Which switch fluorescence ratio is listed for CTCTTGGGGT ?
Result :: 0.997

Query :: Which switch fluorescence ratio is listed for CTTCAATTAT ?
Result :: 1.01

Query :: Which switch fluorescence ratio is listed for AGGAAAAATA ?
Result :: 0.988

Query :: Which switch fluorescence ratio is listed for TCAGAATGCG ?
Result :: 0.991

Query :: Which switch fluorescence ratio is listed for GCGAAAACAG ?
Result :: 1

Query :: Which switch fluorescence ratio is listed for CTGGGTTGTT ?
Result :: 1.02

Query :: Which switch fluorescence ratio is listed for AATTTTTAGG ?
Result :: 0.981

Query :: Which switch fluorescence ratio is listed for ATTTTATTAG ?
Result :: 1.01

Query :: Which switch fluorescence ratio is listed for GGGGGTAACT ?
Result :: 1
